# System: Pseudomonas aeruginosa strain TS88 (clinical isolate)
# Protocol Description: Antimicrobial activity, MIC by broth microdilution
# Type: cell-based
# Particulars: Table 1, 35° C., 18 hours, read-out: MIC Pseudomonas aeruginosa TS88 strain
# reported MIC; entries follow
Measured Parameter: MIC (µg/mL)

[[record]]
compound = "CNC(=O)C(C(=O)NO)N(C)C(=O)c1ccc(-c2ccc(OCCCN3CCOCC3)cc2)cc1 (stereo not drawn)"
value_units = "µg/mL"
observed_result = 2

[[record]]
compound = "CNC(=O)C(C(=O)NO)N(C)C(=O)c1ccc(-c2ccc(CF)cc2)cc1 (stereo not drawn)"
value_units = "µg/mL"
observed_result = 0.5

[[record]]
compound = "CNC(=O)C(C(=O)NO)N(C)C(=O)c1ccc(-c2ccc3c(c2)OCC3)cc1 (stereo not drawn)"
value_units = "µg/mL"
observed_result = 0.5

[[record]]
compound = "CNC(=O)C(C(=O)NO)N(C)C(=O)c1ccc(-c2ccc3c(c2)OC(OC)O3)cc1 (stereo not drawn)"
value_units = "µg/mL"
observed_result = 2

[[record]]
compound = "CNC(=O)C(C(=O)NO)N(C)C(=O)c1ccc(-c2ccc(NC)cc2)cc1 (stereo not drawn)"
value_units = "µg/mL"
observed_result = 0.5

[[record]]
compound = "CNC(=O)C(C(=O)NO)N(C)C(=O)c1ccc(-c2ccccc2)cc1 (stereo not drawn)"
value_units = "µg/mL"
observed_result = 0.5

